Each entry below carries its recorded melting point.

The examples below pair each entry with its known result.
- molecule: "Cc1cccc(NC(=O)N(C)c2nc(-c3ccccc3)c(-c3ccc(=O)n(C(C)C)n3)s2)c1 [Example 99]"
  melting point: "157 to 158 °C"
- molecule: "CC(C)n1nc(-c2sc(NC(=O)c3ccccc3Cl)nc2-c2ccccc2)ccc1=O [Example 46]"
  melting point: "220 to 221 °C"
- molecule: "CC(C)n1nc(-c2sc(NC(=O)c3ccc(CN(C)CCN(C)C)cc3)nc2-c2ccccc2)ccc1=O [Example 137]"
  melting point: "131 to 133 °C"

For COCCn1nc(-c2sc(C(N)=O)nc2-c2ccccc2)ccc1=O [Example 168] the molecule record lists melting point as 198 to 199.5 °C

----------
Each entry below carries its recorded melting point.

The examples below pair each entry with its known result.
- smiles_structure: "CC(C)n1nc(-c2sc(NC(C)(C)C)nc2-c2ccccc2)ccc1=O"
  melting point: "189 to 190 °C"
- smiles_structure: "CC(C)Nc1nc(-c2ccccc2)c(-c2ccc(=O)n(C(C)C)n2)s1"
  melting point: "138 to 139 °C"
- smiles_structure: "COc1ccccc1C(=O)Nc1nc(-c2ccccc2)c(-c2ccc(=O)n(C(C)C)n2)s1"
  melting point: "> 250 °C"

For O=c1ccc(-c2sc(NCc3ccccc3)nc2-c2ccccc2)nn1Cc1ccccc1 the compound record lists melting point as 163.5 to 165 °C

For Br.CCCCNc1nc(-c2ccccc2)c(-c2ccc(=O)n(C(C)C)n2)s1 the compound record lists melting point as 204 to 205 °C

----------
observed_property: melting point

The examples below pair each entry with its known result.
- compound: "CC(C)n1nc(-c2sc(NC(=O)CN(C)C)nc2-c2ccccc2)ccc1=O.Cl"
  melting point: "232 to 234 °C"
- compound: "CC(C)n1nc(-c2sc(NC(=O)CNCCN3CCCCC3)nc2-c2ccccc2)ccc1=O.Cl.Cl"
  melting point: "> 250 °C"
- compound: "CC(C)n1nc(-c2sc(NC(=O)c3cc(C(F)(F)F)cc(C(F)(F)F)c3)nc2-c2ccccc2)ccc1=O"
  melting point: "207 to 208 °C"
- compound: "CC(C)n1nc(-c2sc(C(=O)N3CCN(Cc4ccccc4)CC3)nc2-c2ccccc2)ccc1=O"
  melting point: "181 to 182 °C"
- compound: "CC(C)n1nc(-c2sc(NCCCN3CCOCC3)nc2-c2ccccc2)ccc1=O.Cl.Cl"
  melting point: "150 to 153 °C"
- compound: "CC(C)n1nc(-c2sc(NC(=O)CN3CCCCC3)nc2-c2ccccc2)ccc1=O"
  melting point: "189 to 190 °C"
- compound: "CC(C)n1nc(-c2sc(NC(=O)c3ccccc3F)nc2-c2ccccc2)ccc1=O"
  melting point: "251 to 252 °C"
- compound: "Br.CC(C)n1nc(-c2sc(Nc3ccccc3)nc2-c2ccccc2)ccc1=O"
  melting point: "127 to 129 °C"

For CCCn1nc(-c2sc(N)nc2-c2ccccc2)ccc1=O the compound record lists melting point as 224 to 226 °C

For CC(C)n1nc(-c2sc(NC(=O)CNCc3ccccc3)nc2-c2ccccc2)ccc1=O the compound record lists melting point as 144 to 145 °C

For CCCNC(=O)c1nc(-c2ccccc2)c(-c2ccc(=O)n(C)n2)s1 the compound record lists melting point as 108 to 109 °C

For CC(C)n1nc(-c2sc(C(=O)N3CCN(c4ccccc4)CC3)nc2-c2ccccc2)ccc1=O the compound record lists melting point as 163.5 to 165 °C

For CC(C)n1nc(-c2sc(NC(=O)c3ccccc3C(F)(F)F)nc2-c2ccccc2)ccc1=O the compound record lists melting point as 219 to 220 °C

For CCn1nc(-c2sc(C(=O)NC3CC3)nc2-c2ccccc2)ccc1=O the compound record lists melting point as 144 to 145 °C

For CC(C)n1nc(-c2sc(NC(=O)CNC3CC3)nc2-c2ccccc2)ccc1=O.Cl the compound record lists melting point as 123 to 125 °C

----------
Each entry below carries its recorded melting point.

- smiles_structure: "CC(C)n1nc(-c2sc(NC(=O)c3ccccc3OC(F)(F)F)nc2-c2ccccc2)ccc1=O"
  melting point: "212 to 213 °C"

For CNC(=O)c1nc(-c2ccccc2)c(-c2ccc(=O)n(C(C)C)n2)s1 the compound record lists melting point as 165 to 167.5 °C

For CC(C)n1nc(-c2sc(NC(=O)c3ccc(Cn4ccnc4)cc3)nc2-c2ccccc2)ccc1=O the compound record lists melting point as > 250 °C

For CC(C)n1nc(-c2sc(NC(=O)CNCCN3CCOCC3)nc2-c2ccccc2)ccc1=O.Cl.Cl the compound record lists melting point as 250 to 252 °C

For CC(C)n1nc(-c2sc(C(=O)NN(C)C)nc2-c2ccc(F)cc2)ccc1=O the compound record lists melting point as 169 to 170.5 °C

For Cn1nc(-c2sc(C(=O)NCc3ccccn3)nc2-c2ccccc2)ccc1=O the compound record lists melting point as 189 to 190.5 °C

----------
Each entry below carries its recorded melting point.

The examples below pair each entry with its known result.
- smiles_structure: "CC(C)n1nc(-c2sc(NC(=O)C3CC3)nc2-c2ccc(F)cc2)ccc1=O"
  reported_measurement: "250 to 252 °C"
- smiles_structure: "CCN(CC)CCNCc1ccc(C(=O)Nc2nc(-c3ccccc3)c(-c3ccc(=O)n(C(C)C)n3)s2)cc1"
  reported_measurement: "158 to 160 °C"
- smiles_structure: "Cc1cccc(C(=O)Nc2nc(-c3ccccc3)c(-c3ccc(=O)n(C(C)C)n3)s2)c1"
  reported_measurement: "198 to 199 °C"
- smiles_structure: "CC(=O)Cn1nc(-c2sc(N)nc2-c2ccccc2)ccc1=O"
  reported_measurement: "216 to 219 °C"
- smiles_structure: "CC(C)n1nc(-c2sc(NCCCN3CCOCC3)nc2-c2ccccc2)ccc1=O"
  reported_measurement: "194 to 195 °C"
- smiles_structure: "CC(C)n1nc(-c2sc(NC(=O)NCc3ccccc3)nc2-c2ccccc2)ccc1=O"
  reported_measurement: "200 to 201 °C"
- smiles_structure: "Cc1cccc(NC(=O)Nc2nc(-c3ccccc3)c(-c3ccc(=O)n(C(C)C)n3)s2)c1"
  reported_measurement: "242 to 243 °C"
- smiles_structure: "CC(C)n1nc(-c2sc(NC(=O)c3ccccn3)nc2-c2ccccc2)ccc1=O"
  reported_measurement: "245 to 246 °C"
- smiles_structure: "CCCNC(=O)c1nc(-c2ccccc2)c(-c2ccc(=O)n(C(C)C)n2)s1"
  reported_measurement: "141 to 142 °C"
- smiles_structure: "COc1ccc(CC(=O)Nc2nc(-c3ccccc3)c(-c3ccc(=O)n(C(C)C)n3)s2)cc1"
  reported_measurement: "188 to 190 °C"

For CCCCCCNc1nc(-c2ccccc2)c(-c2ccc(=O)n(C(C)C)n2)s1 the compound record lists melting point as 90 to 92 °C

For CC(C)n1nc(-c2sc(C(=O)NCCc3ccccn3)nc2-c2ccc(F)cc2)ccc1=O the compound record lists melting point as 144 to 145 °C

For CC(C)n1nc(-c2sc(C(=O)N3CCCCC3)nc2-c2ccccc2)ccc1=O the compound record lists melting point as 111 to 112 °C

For CCCn1nc(-c2sc(C(=O)NC3CC3)nc2-c2ccccc2)ccc1=O the compound record lists melting point as 146 to 147 °C

For CC(C)n1nc(-c2sc(C(=O)NC3CC3)nc2-c2ccc(F)cc2)ccc1=O the compound record lists melting point as 157 to 158 °C

For CC(C)n1nc(-c2sc(NC(=O)c3ccc(CNCCN4CCOCC4)cc3)nc2-c2ccccc2)ccc1=O the compound record lists melting point as 86 to 88 °C

For COC(=O)Cn1nc(-c2sc(N)nc2-c2ccccc2)ccc1=O the compound record lists melting point as 190 to 193 °C

----------
Each entry below carries its recorded melting point.

- molecule: "CC(C)n1nc(-c2sc(NC(=O)c3cccc(Cl)c3)nc2-c2ccccc2)ccc1=O [Example 35]"
  melting point: "173 to 174 °C"
- molecule: "CONC(=O)c1nc(-c2ccc(F)cc2)c(-c2ccc(=O)n(C(C)C)n2)s1 [Example 238]"
  melting point: "164.5 to 166.5 °C"
- molecule: "CCCNC(=O)c1nc(-c2ccccc2)c(-c2ccc(=O)n(CCC)n2)s1 [Example 172]"
  melting point: "121 to 122 °C"
- molecule: "CC(C)n1nc(-c2sc(NC(=O)c3ccc(C(F)(F)F)cc3)nc2-c2ccccc2)ccc1=O [Example 39]"
  melting point: "162 to 167 °C"

Below: the item to evaluate.
For CC(C)n1nc(-c2sc(NC(=O)c3ccc(CNCCCN(C)C)cc3)nc2-c2ccccc2)ccc1=O [Example 143] the molecule record lists melting point as 108 to 110 °C
